System: Mus musculus
Assay: Toxicity in Kunming mouse implanted with mouse H22 cell assessed as survival at 40 mg/kg, ip administered on day 1 and day 5
Format: organism-based
Settings: in vivo
Assay Endpoint: Activity

CCc1c2c(nc3ccccc13)-c1cc3c(c(=O)n1C2)COC(=O)[C@@]3(CC)OC(=O)Cn1cc(Cl)c(=O)[nH]c1=O: Non-Toxic
CCc1c2c(nc3ccccc13)-c1cc3c(c(=O)n1C2)COC(=O)[C@@]3(CC)OC(=O)Cn1cc(F)c(=O)[nH]c1=O: Non-Toxic
CC[C@@]1(OC(=O)Cn2ccc(=O)[nH]c2=O)C(=O)OCc2c1cc1n(c2=O)Cc2cc3c([N+](=O)[O-])cccc3nc2-1: Non-Toxic
CC[C@@]1(OC(=O)Cn2cc(Br)c(=O)[nH]c2=O)C(=O)OCc2c1cc1n(c2=O)Cc2cc3ccccc3nc2-1: Non-Toxic

* * *

Test system: BGC-823
Assay: Antiproliferative activity against human BGC823 cells after 96 hrs by MTT assay
Format: functional, cell-based
Conditions: BGC-823, 96 h
Provide the reported pIC50 of each item.
Answers are plain numbers, as −log10 of the molar value.

CC[C@@]1(OC(=O)Cn2cc(Cl)c(=O)[nH]c2=O)C(=O)OCc2c1cc1n(c2=O)Cc2cc3ccccc3nc2-1: 7.80
CC[C@@]1(OC(=O)Cn2cc(Cl)c(=O)[nH]c2=O)C(=O)OCc2c1cc1n(c2=O)Cc2cc3c([N+](=O)[O-])cccc3nc2-1: 7.77
CCc1c2c(nc3ccccc13)-c1cc3c(c(=O)n1C2)COC(=O)[C@@]3(CC)OC(=O)Cn1ccc(=O)[nH]c1=O: 7.77
CC[C@@]1(OC(=O)Cn2ccc(=O)[nH]c2=O)C(=O)OCc2c1cc1n(c2=O)Cc2cc3ccccc3nc2-1: 7.77

Dear reader, for each entry below, please note its pIC50.
1. CC[C@@]1(O)C(=O)OCc2c1cc1n(c2=O)Cc2cc3ccccc3nc2-1
2. CCc1c2c(nc3ccccc13)-c1cc3c(c(=O)n1C2)COC(=O)[C@@]3(CC)OC(=O)Cn1cc(Cl)c(=O)[nH]c1=O
3. CC[C@@]1(OC(=O)Cn2cc(I)c(=O)[nH]c2=O)C(=O)OCc2c1cc1n(c2=O)Cc2cc3ccccc3nc2-1

Response:
1. 7.24
2. 7.77
3. 5.10

* * *

System: HCT-8
Assay: Antiproliferative activity against human HCT8 cells after 96 hrs by MTT assay
Format: functional, cell-based
Details: HCT-8, 96 h
Assay Endpoint: pIC50
One number for each entry, as −log10 of the molar value.

Examples from the recorded data:
CC[C@@]1(OC(=O)Cn2ccc(=O)[nH]c2=O)C(=O)OCc2c1cc1n(c2=O)Cc2cc3c([N+](=O)[O-])cccc3nc2-1: 7.85
CC[C@@]1(O)C(=O)OCc2c1cc1n(c2=O)Cc2cc3ccccc3nc2-1: 7.62
CC[C@@]1(OC(=O)Cn2cc(Cl)c(=O)[nH]c2=O)C(=O)OCc2c1cc1n(c2=O)Cc2cc3c([N+](=O)[O-])cccc3nc2-1: 7.89

Record pIC50 per entry; entries follow.
1. CC[C@@]1(OC(=O)Cn2cc(Cl)c(=O)[nH]c2=O)C(=O)OCc2c1cc1n(c2=O)Cc2cc3ccccc3nc2-1
2. CC[C@@]1(OC(=O)Cn2cc(I)c(=O)[nH]c2=O)C(=O)OCc2c1cc1n(c2=O)Cc2cc3c([N+](=O)[O-])cccc3nc2-1

Response:
1. 7.89
2. 7.85

* * *

System: A2780
Assay: Antiproliferative activity against human A2780 cells after 96 hrs by MTT assay
Format: functional, cell-based
Settings: A2780, 96 h
Assay Endpoint: IC50 (nM)
One number for each entry, in nM.

CC[C@@]1(OC(=O)Cn2cc(I)c(=O)[nH]c2=O)C(=O)OCc2c1cc1n(c2=O)Cc2cc3ccccc3nc2-1: 750
CCc1c2c(nc3ccccc13)-c1cc3c(c(=O)n1C2)COC(=O)[C@@]3(CC)OC(=O)Cn1ccc(=O)[nH]c1=O: 86
CC[C@@]1(OC(=O)Cn2cc(F)c(=O)[nH]c2=O)C(=O)OCc2c1cc1n(c2=O)Cc2cc3ccccc3nc2-1: 68
CC[C@@]1(OC(=O)Cn2cc(Br)c(=O)[nH]c2=O)C(=O)OCc2c1cc1n(c2=O)Cc2cc3ccccc3nc2-1: 160
CC[C@@]1(OC(=O)Cn2cc(Cl)c(=O)[nH]c2=O)C(=O)OCc2c1cc1n(c2=O)Cc2cc3c([N+](=O)[O-])cccc3nc2-1: 221
CCc1c2c(nc3ccccc13)-c1cc3c(c(=O)n1C2)COC(=O)[C@@]3(CC)OC(=O)Cn1cc(F)c(=O)[nH]c1=O: 147

Could you report IC50 for every entry in the following list?
1. CC[C@@]1(OC(=O)Cn2cc(I)c(=O)[nH]c2=O)C(=O)OCc2c1cc1n(c2=O)Cc2cc3c([N+](=O)[O-])cccc3nc2-1
2. CCc1c2c(nc3ccccc13)-c1cc3c(c(=O)n1C2)COC(=O)[C@@]3(CC)OC(=O)Cn1cc(Cl)c(=O)[nH]c1=O

Response:
200
670

Please state IC50 for every compound in the list that follows.
1. CC[C@@]1(OC(=O)Cn2ccc(=O)[nH]c2=O)C(=O)OCc2c1cc1n(c2=O)Cc2cc3ccccc3nc2-1
2. CC[C@@]1(OC(=O)Cn2ccc(=O)[nH]c2=O)C(=O)OCc2c1cc1n(c2=O)Cc2cc3c([N+](=O)[O-])cccc3nc2-1
3. CC[C@@]1(O)C(=O)OCc2c1cc1n(c2=O)Cc2cc3c(CN(C)C)c(O)ccc3nc2-1
4. CC[C@@]1(OC(=O)Cn2cc(Br)c(=O)[nH]c2=O)C(=O)OCc2c1cc1n(c2=O)Cc2cc3c([N+](=O)[O-])cccc3nc2-1
5. CC[C@@]1(OC(=O)Cn2cc(F)c(=O)[nH]c2=O)C(=O)OCc2c1cc1n(c2=O)Cc2cc3c([N+](=O)[O-])cccc3nc2-1
6. CC[C@@]1(O)C(=O)OCc2c1cc1n(c2=O)Cc2cc3ccccc3nc2-1

Response:
[160, 73, 78, 183, 115, 29]

Would you mind giving IC50 for every compound in the list below?
1. CC[C@@]1(OC(=O)Cn2cc(Cl)c(=O)[nH]c2=O)C(=O)OCc2c1cc1n(c2=O)Cc2cc3ccccc3nc2-1
2. CCc1c2c(nc3ccccc13)-c1cc3c(c(=O)n1C2)COC(=O)[C@@]3(CC)OC(=O)Cn1cc(Br)c(=O)[nH]c1=O
3. CCc1c2c(nc3ccccc13)-c1cc3c(c(=O)n1C2)COC(=O)[C@@]3(CC)OC(=O)Cn1cc(I)c(=O)[nH]c1=O

Response:
110
182
669

* * *

Tested on: Mus musculus
Assay: Antitumor activity in BALB/c nude mouse xenografted with human Bel7402 cells assessed as tumor volume at 30 mg/kg, ip administered once in a week for two weeks starting from 6 days post tumor transplantation measured every 3 days for 21 days (reference value: 511 mm3)
Conditions: in vivo, 504 h
Assay Endpoint: tumor volume (mm³)
Give bare numbers, in mm³.

Prompt: Using the record for `CCc1c2c(nc3ccccc13)-c1cc3c(c(=O)n1C2)COC(=O)[C@@]3(CC)OC(=O)Cn1cc(F)c(=O)[nH]c1=O` , report its tumor volume.
Response: 231

* * *

Tested on: Mus musculus
Test: Toxicity in Kunming mouse implanted with mouse H22 cells assessed as body weight at 40 mg/kg, ip administered on day 1 and day 5 (reference value: 32.5 g)
Type: organism-based
Settings: in vivo
So I've got a bunch of compounds here, and I need their Activity values.
Numbers only, in g.

Batch lookup, Activity per entry.
1. CC[C@@]1(OC(=O)Cn2cc(Br)c(=O)[nH]c2=O)C(=O)OCc2c1cc1n(c2=O)Cc2cc3ccccc3nc2-1
2. CCc1c2c(nc3ccccc13)-c1cc3c(c(=O)n1C2)COC(=O)[C@@]3(CC)OC(=O)Cn1cc(Cl)c(=O)[nH]c1=O
3. CC[C@@]1(OC(=O)Cn2ccc(=O)[nH]c2=O)C(=O)OCc2c1cc1n(c2=O)Cc2cc3c([N+](=O)[O-])cccc3nc2-1

Response:
1. 32.1
2. 27
3. 32

Prompt: Report Activity for `CCc1c2c(nc3ccccc13)-c1cc3c(c(=O)n1C2)COC(=O)[C@@]3(CC)OC(=O)Cn1cc(F)c(=O)[nH]c1=O` please.
Response: 27.3

* * *

For each of the compounds below, state its IC50.
Tested on: HCT-8
Test: Antiproliferative activity against human HCT8 cells after 96 hrs by MTT assay
Format: functional, cell-based
Conditions: HCT-8, 96 h
Numbers only, in nM.

Here is how some compounds turned out for IC50.
CC[C@@]1(O)C(=O)OCc2c1cc1n(c2=O)Cc2cc3c(CN(C)C)c(O)ccc3nc2-1 [TOPOTECAN]: 22
CC[C@@]1(OC(=O)Cn2cc(I)c(=O)[nH]c2=O)C(=O)OCc2c1cc1n(c2=O)Cc2cc3ccccc3nc2-1: 957
CCc1c2c(nc3ccccc13)-c1cc3c(c(=O)n1C2)COC(=O)[C@@]3(CC)OC(=O)Cn1cc(Cl)c(=O)[nH]c1=O: 2
CC[C@@]1(OC(=O)Cn2cc(F)c(=O)[nH]c2=O)C(=O)OCc2c1cc1n(c2=O)Cc2cc3ccccc3nc2-1: 109
CCc1c2c(nc3ccccc13)-c1cc3c(c(=O)n1C2)COC(=O)[C@@]3(CC)OC(=O)Cn1ccc(=O)[nH]c1=O: 2
CC[C@@]1(OC(=O)Cn2cc(Br)c(=O)[nH]c2=O)C(=O)OCc2c1cc1n(c2=O)Cc2cc3c([N+](=O)[O-])cccc3nc2-1: 13

Then there is this compound:
Prompt: Which value of IC50 has been reported for `CCc1c2c(nc3ccccc13)-c1cc3c(c(=O)n1C2)COC(=O)[C@@]3(CC)OC(=O)Cn1cc(I)c(=O)[nH]c1=O` in the records?
Response: 586
